Assay: pH-dependent solubility of the beneficial agent
Format: physicochemical
Details: pH 7, aqueous buffer
reportedProperty: solubility

INPUT: # query: solubility of entry N#Cc1ccc(Cn2cncc2CN2CCN(c3cccc(Cl)c3)C(=O)C2)cc1
OUTPUT: ~70 µg/mL

----------
Test: pH-dependent solubility of the beneficial agent
Type: physicochemical
Conditions: pH 1, simulated gastric fluid
reportedProperty: solubility

INPUT: # query: solubility of entry N#Cc1ccc(Cn2cncc2CN2CCN(c3cccc(Cl)c3)C(=O)C2)cc1
OUTPUT: ~1000 mg/mL
